SYSTEM_UNDER_TEST: T1, hRSV FTM-NN (membrane anchorless form of the Long fusion protein, 70 kDa) (human respiratory syncytial virus, …, UniProt P12568 26-524)
T1 construct: also called FTM-NN (Long); hRSV FTM-protein
PROCEDURE_TEXT: SPR (Biacore), FTM-NN amine-coupled on CM5 chip, 1:1 Langmuir fit

{"columns": ["BINDER", "koff [s⁻¹]"],
 "data": [
  ["Nanobody 13A1 (VHH, also called PMP13A1; PRSV13A1) VHH: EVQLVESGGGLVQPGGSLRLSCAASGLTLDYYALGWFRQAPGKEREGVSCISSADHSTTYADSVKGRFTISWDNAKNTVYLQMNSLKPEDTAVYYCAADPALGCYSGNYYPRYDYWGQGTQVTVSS", 0.00035],
  ["Nanobody 1B2 (VHH, c-myc/His6-tagged; also called PMP1B2; PRSV1B2) VHH: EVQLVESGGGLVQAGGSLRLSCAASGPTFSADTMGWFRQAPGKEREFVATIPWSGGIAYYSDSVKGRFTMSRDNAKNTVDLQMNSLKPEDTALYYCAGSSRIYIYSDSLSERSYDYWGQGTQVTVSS", 0.00017]
]}
